Value source: patent US9029405B2

Target: S1P3 (Homo sapiens)
Sequence (Q99500 whole entry, species assumed): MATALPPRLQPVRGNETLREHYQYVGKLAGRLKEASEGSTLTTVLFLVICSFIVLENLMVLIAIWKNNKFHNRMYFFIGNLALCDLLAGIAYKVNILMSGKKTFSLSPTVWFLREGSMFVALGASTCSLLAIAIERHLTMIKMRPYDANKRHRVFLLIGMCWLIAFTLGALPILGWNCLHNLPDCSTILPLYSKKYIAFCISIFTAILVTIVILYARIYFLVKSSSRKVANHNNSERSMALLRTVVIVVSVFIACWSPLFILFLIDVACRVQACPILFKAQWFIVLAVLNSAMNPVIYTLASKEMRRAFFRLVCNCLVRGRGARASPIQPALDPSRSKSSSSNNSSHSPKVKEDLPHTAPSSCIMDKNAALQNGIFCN
Assay: Receptor binding assay, [33P]sphingosine 1-phosphate competition, membranes of CHO cells expressing S1P3
Conditions: 384 well plate; read-out: S1P3 Binding Ki [M] (384 well plate)
Where a name gives a salt, the structure may show the parent alone.
experimental.endpoint: Ki (M)
Answers are plain numbers, in M.

// batch mode: one Ki value per listed entry
1. Cc1ccccc1-c1ccc(-c2nc(-c3ccc([C@@H](C)N[C@@H](C)C(=O)O)cc3)no2)cc1C(F)(F)F [Example 19, hydrochloride salt]
2. Cc1ccccc1-c1ccc(-c2nc(-c3cccc(CNC(C)(CO)C(=O)O)c3)no2)cc1C(F)(F)F (centres unmarked) [Example 78]
3. Cc1ccccc1-c1ccc(-c2nc(-c3ccc([C@H](C)N[C@@H](C)C(=O)O)cc3)no2)cc1C(F)(F)F [Example 18, hydrochloride salt]
4. Cc1ccccc1-c1ccc(-c2nc(-c3ccc(CN(C)[C@@H](C)C(=O)O)cc3)no2)cc1C(F)(F)F [Example 70]
5. COCc1cc(-c2nc(-c3ccc(CN(C)[C@@H](C)C(=O)O)c(F)c3)no2)ccc1-c1ccccc1C [Example 44, hydrochloride salt]

1: 2.56e-06; 2: 2.78e-07; 3: 3.65e-06; 4: 7.53e-07; 5: 8.69e-07

// batch mode: one Ki value per listed entry
1. Cc1ccccc1-c1ccc(-c2nc(-c3ccc(CCN[C@H](C)C(=O)O)cc3)no2)cc1C(F)(F)F [Example 93]
2. COCc1cc(-c2nc(-c3ccc([C@H](C)NCC(=O)O)cc3)no2)ccc1-c1ccccc1C [Example 5, hydrochloride salt]
3. Cc1ccccc1-c1ccc(-c2nc(-c3cccc(CCN[C@H](C(=O)O)C(C)C)c3)no2)cc1C(F)(F)F [Example 96]

["4.67e-06", "1.23e-06", "1.78e-07"]

// batch mode: one Ki value per listed entry
1. Cc1ccccc1-c1ccc(-c2nc(-c3ccc(C(C)N(C)CC(=O)O)cc3)no2)cc1C(F)(F)F (centres unmarked) [Example 40, hydrochloride salt]
2. Cc1ccccc1-c1ccc(-c2nc(-c3ccc(CNC4(C(=O)O)CCC4)cc3)no2)cc1C(F)(F)F [Example 66]
3. CCC(NCc1ccc(-c2noc(-c3ccc(-c4ccccc4C)c(C(F)(F)F)c3)n2)cc1)C(=O)O (centres unmarked) [Example 58]
4. Cc1ccccc1-c1ccc(-c2nc(-c3ccc(CN[C@@H](C)C(=O)O)cc3)no2)cc1C(F)(F)F [Example 67]

1: 5.32e-07; 2: 9.31e-07; 3: 5.22e-06; 4: 4.49e-06

----------
Target: UniProt:P21453
Sequence (P21453 whole entry, species assumed): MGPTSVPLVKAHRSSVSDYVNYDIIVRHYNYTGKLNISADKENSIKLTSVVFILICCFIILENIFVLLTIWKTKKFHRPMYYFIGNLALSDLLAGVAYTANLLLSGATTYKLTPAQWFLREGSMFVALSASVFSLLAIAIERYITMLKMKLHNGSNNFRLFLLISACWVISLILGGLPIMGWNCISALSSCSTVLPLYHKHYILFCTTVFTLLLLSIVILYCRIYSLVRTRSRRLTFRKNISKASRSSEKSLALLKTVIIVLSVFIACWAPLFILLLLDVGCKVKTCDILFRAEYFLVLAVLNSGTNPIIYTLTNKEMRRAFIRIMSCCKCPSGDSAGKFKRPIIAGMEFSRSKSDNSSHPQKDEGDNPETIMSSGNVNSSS
Assay: Receptor binding assay, [33P]sphingosine 1-phosphate competition, membranes of CHO cells expressing S1P1
Conditions: 96 well plate; read-out: S1P1 Binding Ki [M] (96 well plate)
Counter-ions that a name gives are not always drawn.
Record form. Attribute: Ki. Fill in for each entry.
Answers without a unit are incomplete; give the number and then its unit.

{"columns": ["compound", "Ki"],
 "data": [
  ["COCc1cc(-c2nc(-c3ccc([C@H](C)N[C@H](C)C(=O)O)cc3)no2)ccc1-c1ccccc1C [Example 3, hydrochloride salt]", "3.4e-10 M"]
]}

// batch mode: one Ki value per listed entry
1. Cc1cc(-c2nc(-c3ccc([C@@H](C)N[C@H](C)C(=O)O)cc3)no2)ccc1-c1ccccc1C(F)(F)F [Example 6, hydrochloride salt]
2. Cc1cc(-c2nc(-c3ccc([C@@H](C)NCC(=O)O)cc3)no2)ccc1-c1ccccc1C(F)F [Example 7, hydrochloride salt]
3. COCc1cc(-c2nc(-c3ccc([C@@H](C)N[C@H](C)C(=O)O)cc3)no2)ccc1-c1ccccc1C [Example 4, hydrochloride salt]
4. COCc1cc(-c2nc(-c3ccc([C@@H](C)NCC(=O)O)cc3)no2)ccc1-c1ccccc1C [Example 9, hydrochloride salt]
5. Cc1ccccc1-c1ccc(-c2nc(-c3ccc([C@@H](C)N[C@H](C)C(=O)O)cc3)no2)cc1C(F)(F)F [Example 20, hydrochloride salt]

["9.92e-10 M", "3.7e-10 M", "1.45e-10 M", "1.75e-10 M", "8.67e-10 M"]
